system: HIV-1 virus NL(AD8); experiment: Antiviral activity on HIV-1 (AD8) replication in TZM-bl cells (CPRG assay); format: cell-based; settings: Human immunodeficiency virus 1, TZM-bl, 48 h, read-out: EC50, HIV-1 (AD8) replication
Readings of EC50 for the listed molecules

Solved entries:
molecule	EC50
O=C(O)c1ccc(O)c(O)c1 [Compound 5, 3,4-dihydroxybenzoic acid]	> 40 µM
Oc1cc(O)c(CC(O)C(O)c2ccc(O)c(O)c2)c(O)c1 (stereo not shown)	> 40 µM

Fill in: EC50 on HIV-1 virus NL(AD8), entry C=C(C)C(O)CC/C(C)=C/Cc1c(O)cc(O)c(C(=O)C(C)CC)c1O (stereo not shown) 3.5 µM

Fill in: EC50 on HIV-1 virus NL(AD8), entry C[C@@H]1O[C@@H](Oc2c(-c3ccc(O)c(O)c3)oc3cc(O)cc(O)c3c2=O)[C@H](O)[C@H](O)[C@H]1O > 40 µM

Data origin, for the record: paper PMC5877874
